I50: recorded values
Target: Heart phosphodiesterase (Bos taurus, UniProt Q01061+P14100+E1BN64)
Assay: In vitro inhibition of bovine heart phosphodiesterase (PDE I)
Assay type: protein assay
Readout Name: I50 (µM)

> print(dat)
                                    compound  units.label  measurement
 1  CCC(C)C1C(=O)N(CC)c2scn[n+]2C1=O (configuration not stated)           µM          233
 2  CCCC1C(=O)N(CC)c2scn[n+]2C1=O (configuration not stated)           µM          252
 3  CC[N+]1=C2SC=NN2C(=O)C(C)C1=O (configuration not stated)           µM         1160
 4  CCc1n[n+]2c(s1)N(CC)C(=O)C(CC)C2=O (configuration not stated)           µM         1980
 5  CCC1C(=O)N(CC)c2scc(C)[n+]2C1=O (configuration not stated)           µM          412
 6  CCC1C(=O)N(CC2CC2)c2scc(-c3ccccc3)[n+]2C1=O (configuration not stated)           µM          287
 7  CCN1C(=O)C(CC(C)C)C(=O)[n+]2ncsc21 (configuration not stated)           µM          154
 8  CCC1C(=O)N2N=CSC2=[N+](CC)C1=O (configuration not stated)           µM          550
 9  CC(C)Cn1c(=O)n(C)c(=O)c2nc[nH]c21 [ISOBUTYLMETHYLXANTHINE]           µM          9.9
10  CCC1C(=O)N(CC)c2sc(C)n[n+]2C1=O (configuration not stated)           µM         1689
11                CC[N+]1=C2SC=NN2C(=O)CC1=O           µM          774
12  CCN1C(=O)C(C(C)C)C(=O)[n+]2ncsc21 (configuration not stated)           µM          254
13  CCN1C(=O)C(C)C(=O)[n+]2nc(C)sc21 (configuration not stated)           µM         2453
14  CCC1C(=O)N(CC)c2scc[n+]2C1=O (configuration not stated)           µM          858
15  CCc1n[n+]2c(s1)N(CC)C(=O)C(C)C2=O (configuration not stated)           µM         2411
16  CCCCCC1C(=O)N(CC)c2scn[n+]2C1=O (configuration not stated)           µM          156
17  CC1C(=O)N(Cc2cccc(Cl)c2)c2scc(-c3ccccc3)[n+]2C1=O (configuration not stated)           µM          152
18  CCN1C(=O)C(Cc2ccc(Cl)cc2)C(=O)[n+]2ncsc21 (configuration not stated)           µM          9.6
19       O=C1CC(=O)[n+]2ccsc2N1Cc1cccc(Cl)c1           µM          308
20  CCC1C(=O)N2C=CSC2=[N+](CC2CC2)C1=O (configuration not stated)           µM          396
21  CCN1C(=O)C(c2ccccc2)C(=O)[n+]2ncsc21 (configuration not stated)           µM           24
22  CC[N+]1=C2SC=NN2C(=O)C(Cc2ccccc2)C1=O (configuration not stated)           µM           52
